Test: Effect on body temperature in Swiss Albino mouse assessed as rectal body temperature at 20 mg/kg, ip measured after 90 mins by thermometer (reference value: 0.18 to 0.63 degreeC)
Assay type: ADME, organism-based
Details: in vivo, 1.5 h
Value Type: deltaT (°C)
Give bare numbers, in °C.

The examples below pair each entry with its known result.
COc1cccc(CN2C3CCC2CC(NC(=O)c2ccc4ccccc4c2)C3)c1 (stereo not drawn): 0.81
O=C(NC1CC2CCC(C1)N2Cc1cccc(Cl)c1)c1ccc2ccccc2c1 (stereo not drawn): 0.41

Turning now to a further record.
-- ask Look up and report measured deltaT for this entry: O=C(NC1CC2CCC(C1)N2Cc1cccc(Br)c1)c1ccc2ccccc2c1 (stereo not drawn)
-- reply 0.36
